- study-target: UniProtKB O00444
- Sequence (O00444 whole entry): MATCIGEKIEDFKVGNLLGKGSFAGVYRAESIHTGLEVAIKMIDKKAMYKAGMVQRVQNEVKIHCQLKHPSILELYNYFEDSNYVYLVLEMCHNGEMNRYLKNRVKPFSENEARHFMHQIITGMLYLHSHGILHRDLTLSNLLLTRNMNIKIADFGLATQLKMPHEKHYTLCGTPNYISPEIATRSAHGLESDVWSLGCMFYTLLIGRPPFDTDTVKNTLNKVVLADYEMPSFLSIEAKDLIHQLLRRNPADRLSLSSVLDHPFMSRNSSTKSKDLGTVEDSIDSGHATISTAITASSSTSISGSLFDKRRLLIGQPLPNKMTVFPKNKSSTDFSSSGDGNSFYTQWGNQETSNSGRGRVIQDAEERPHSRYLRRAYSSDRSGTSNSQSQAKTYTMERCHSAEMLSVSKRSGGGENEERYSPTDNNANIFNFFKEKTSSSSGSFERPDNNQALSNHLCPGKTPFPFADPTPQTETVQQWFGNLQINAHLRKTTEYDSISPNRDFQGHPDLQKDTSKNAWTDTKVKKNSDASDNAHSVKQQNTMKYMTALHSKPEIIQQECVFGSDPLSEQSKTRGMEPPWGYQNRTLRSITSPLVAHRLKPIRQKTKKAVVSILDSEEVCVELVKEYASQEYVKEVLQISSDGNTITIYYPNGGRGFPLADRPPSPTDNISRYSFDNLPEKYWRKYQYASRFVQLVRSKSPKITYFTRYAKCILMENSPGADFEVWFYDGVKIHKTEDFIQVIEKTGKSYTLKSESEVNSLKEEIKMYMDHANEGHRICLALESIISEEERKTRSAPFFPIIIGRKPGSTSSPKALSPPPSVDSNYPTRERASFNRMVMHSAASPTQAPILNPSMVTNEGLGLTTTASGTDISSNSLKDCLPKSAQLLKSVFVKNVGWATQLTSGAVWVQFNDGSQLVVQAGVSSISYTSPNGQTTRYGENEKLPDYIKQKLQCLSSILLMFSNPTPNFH
- test-summary: Synuclein phosphorylation in HEK-293 cells over-expressing synuclein and PLK4
- condition-set: HEK-293, Example 16; read-out: EC50 based on percent inhibition of synuclein phosphorylation, Synuclein + PLK4
readout-type: pEC50
Numbers only, as −log10 of the molar value.

Qu. I'd like to know its pEC50. The compound in question is CN(C)c1nc2c(Br)c(Br)c(Br)c(Br)c2[nH]1 [DMAT]
Ans. 4.13
